All values here come from paper PMC11676667.

experiment: Plasma pharmacokinetics after single oral dose of Δ8-THCV in MCT oil (LC-MS/MS, non-compartmental analysis); type: in vivo, human; conditions: human, plasma, po, 12.5 mg, 12.5 mg single oral Δ8-THCV in MCT oil; Median (Range)
Measurement Type: AUC(0-t) (ng·h/mL)

>>> number("CCCc1cc(O)c2c(c1)OC(C)(C)[C@@H]1CC=C(C(=O)O)C[C@@H]21 [Δ8-THCV-COOH, 11-nor-9-carboxy-Δ8-THCV]")
331
>>> number("CCCc1cc(O)c2c(c1)OC(C)(C)[C@@H]1CC=C(C)C[C@@H]21 [Δ8-THCV, Δ8-tetrahydrocannabivarin]")
2.1
>>> number("CCCc1cc(O)c2c(c1)OC(C)(C)[C@@H]1CCC(C(=O)O)=C[C@@H]21 [Δ9-THCV-COOH, 11-nor-9-carboxy-Δ9-THCV]")
5.6
>>> number("CCCc1cc(O)c2c(c1)OC(C)(C)[C@@H]1CC=C(CO)C[C@@H]21 (racemic) [11-OH-Δ8-THCV, (±)-11-hydroxy-Δ8-THCV]")
0.8
